Source of measurements: patent US11160758B2

Assay: clinical
Conditions: human, in vivo
Property: concentration at 3 hr (ng/mL)
The reply should contain only the number, in ng/mL.

Recorded concentration at 3 hr (molecule CCN1CCCC1CNC(=O)c1cc(S(=O)(=O)CC)c(N)cc1OC (stereo not shown) [amisulpride] ): 516

* * *

Experiment: clinical
Settings: human, in vivo
Property: concentration at 2 hr (ng/mL)
Field format: number, assumed ng/mL, no unit text.

Reported concentration at 2 hr ( CCN1CCCC1CNC(=O)c1cc(S(=O)(=O)CC)c(N)cc1OC (stereo not shown) [amisulpride] ) = 432

* * *

Assay: clinical
Conditions: human, in vivo
Property: concentration at 4 hr (ng/mL)
Reply with just the number (in ng/mL).

Measured concentration at 4 hr, CCN1CCCC1CNC(=O)c1cc(S(=O)(=O)CC)c(N)cc1OC (stereo not shown) [amisulpride] : 272
